Target: Type-B CCK receptor (Cavia porcellus)
Construct: Cortical and pancreatic membranes were prepared as described; from tissue; host or cells: guinea pig cerebral cortex membranes
Sequence (H0VZC5 1-426): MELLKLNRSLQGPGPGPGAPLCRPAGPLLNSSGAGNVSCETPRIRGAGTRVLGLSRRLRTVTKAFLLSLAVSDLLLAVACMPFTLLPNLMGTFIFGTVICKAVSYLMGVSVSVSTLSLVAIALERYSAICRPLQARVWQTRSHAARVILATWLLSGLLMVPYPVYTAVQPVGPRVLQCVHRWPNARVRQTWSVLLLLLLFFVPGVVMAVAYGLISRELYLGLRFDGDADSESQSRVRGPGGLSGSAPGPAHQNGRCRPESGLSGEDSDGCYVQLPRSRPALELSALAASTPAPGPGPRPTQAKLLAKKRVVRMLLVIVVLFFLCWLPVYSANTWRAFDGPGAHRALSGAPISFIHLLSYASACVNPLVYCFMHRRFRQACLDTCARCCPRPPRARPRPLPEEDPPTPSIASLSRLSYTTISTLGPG
Test: Radioligand binding of [125I]BH-CCK-8 in guinea pig cerebral cortical membrane preparations
Conditions: guinea pig cortical membranes, 30° C., 150 minutes; read-out: IC50 (nM) 125I-BH-CCK-8 Type-B receptor
*1 amine or outer side, *2 acyl side, *3 side chain or, on linkers, in order; H or OH if unused. Where a SMILES comes first, the peptide text is derived from it. Side-chain parts run from the residue outwards. [ ]: non-standard residue; d: D form. The star is where a group is joined. NMeF = CN[C@@H](Cc1ccccc1)C(=O)O; X10 = COc1ccc(C=CC(=O)*)c(OC)c1; NH(2-Me-phenyl) = Cc1ccccc1N*; X15 = Clc1cccc(N*)c1Cl; Boc = CC(C)(C)OC(=O)*; CO = O=C([*:1])[*:2]; Ms = CS(=O)(=O)*
endpoint: IC50

// known answers, use as guide
molecule: Cc1ccccc1NC(=O)NCCCC[C@H](NC(=O)C(F)Cc1c[nH]c2ccccc12)C(=O)N(C)[C@@H](CC(=O)O)C(=O)N[C@@H](Cc1ccccc1)C(N)=O (some centres unmarked) [Example 109]
tested_target: Type-B CCK receptor (Cavia porcellus)
IC50: > 10000 nM
--
molecule: CC(C)(C)OC(=O)N[C@@H](Cc1c[nH]c2ccccc12)C(=O)N[C@@H](CCCCNC(=O)Nc1cccc(Cl)c1Cl)C(=O)N[C@@H](CC(=O)O)C(=O)N[C@@H](Cc1ccccc1)C(N)=O [Example 125] (Boc-WK([CO-X15])DF-NH2)
tested_target: Type-B CCK receptor (Cavia porcellus)
IC50: > 10000 nM
--
molecule: COc1ccc(C=CC(=O)NCCCC[C@H](NC(=O)[C@H](Cc2c[nH]c3ccccc23)NC(=O)OC(C)(C)C)C(=O)N[C@@H](CC(=O)O)C(=O)N[C@@H](Cc2ccccc2)C(N)=O)c(OC)c1 [Example 23] (Boc-WK(X10)DF-NH2)
tested_target: Type-B CCK receptor (Cavia porcellus)
IC50: 3000 nM

Please go through the list and note IC50 for each molecule.
1. Cc1ccccc1NC(=O)NCCCC[C@H](NC(=O)C(Cc1c[nH]c2ccccc12)C(N)=O)C(=O)N[C@@H](CC(=O)O)C(=O)N(C)[C@@H](Cc1ccccc1)C(N)=O (some centres unmarked) [Example 106]
2. Cc1ccccc1NC(=O)NCCCC[C@H](NC(=O)[C@H](Cc1c[nH]c2ccccc12)NS(C)(=O)=O)C(=O)N[C@@H](CC(=O)O)C(=O)N(C)[C@@H](Cc1ccccc1)C(N)=O [Example 95] (Ms-WK([CO-NH(2-Me-phenyl)])D[NMeF]-NH2)

Result:
1. > 10000 nM
2. > 10000 nM

* * *

Molecular target: Type-A CCK receptor (Cavia porcellus, UniProt Q63931)
Construct: Cortical and pancreatic membranes were prepared as described; from tissue; host or cells: guinea pig pancreas membranes
Sequence (Q63931 whole entry): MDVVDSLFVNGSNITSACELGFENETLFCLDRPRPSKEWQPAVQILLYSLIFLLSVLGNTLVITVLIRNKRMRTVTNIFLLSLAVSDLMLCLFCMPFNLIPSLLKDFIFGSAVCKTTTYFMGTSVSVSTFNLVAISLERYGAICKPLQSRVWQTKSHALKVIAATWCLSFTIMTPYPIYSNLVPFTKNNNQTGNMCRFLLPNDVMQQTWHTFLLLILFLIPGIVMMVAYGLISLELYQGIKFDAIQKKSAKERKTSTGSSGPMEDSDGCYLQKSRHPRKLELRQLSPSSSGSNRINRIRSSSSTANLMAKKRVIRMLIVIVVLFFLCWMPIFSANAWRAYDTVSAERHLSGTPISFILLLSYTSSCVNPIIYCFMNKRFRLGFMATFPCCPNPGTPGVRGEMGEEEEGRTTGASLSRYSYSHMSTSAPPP
Assay: Radioligand binding of [125I]BH-CCK-8 in guinea pig pancreatic membrane preparations
Details: guinea pig pancreatic membranes, 37° C., 150 min; read-out: IC50 (nM) 125I-BH-CCK-8 Type-A receptor
*1 amine or outer side, *2 acyl side, *3 side chain or, on linkers, in order; H or OH if unused. Where a SMILES comes first, the peptide text is derived from it. Side-chain parts run from the residue outwards. [ ]: non-standard residue; d: D form. The star is where a group is joined. Acryloyl(3-(pyridin-3-yl)) = O=C(C=Cc1cccnc1)*; 2Naphthoyl(6-OH) = O=C(c1ccc2cc(O)ccc2c1)*; NMeF = CN[C@@H](Cc1ccccc1)C(=O)O; X10 = COc1ccc(C=CC(=O)*)c(OC)c1; NMeD = CN[C@@H](CC(=O)O)C(=O)O; βNA = c1ccc2cc(N*)ccc2c1; Boc = CC(C)(C)OC(=O)*; CO = O=C([*:1])[*:2]
endpoint: IC50 (nM)
One number for each entry, in nM.

compound: Cc1ccccc1NC(=O)NCCCC[C@H](NC(=O)CCc1c[nH]c2ccccc12)C(=O)N(C)[C@@H](CC(=O)O)C(=O)N(C)[C@@H](Cc1ccccc1)C(N)=O
tested_target: Type-A CCK receptor (Cavia porcellus, UniProt Q63931)
IC50, nM: 14
--
compound: Cc1ccccc1NC(=O)NCCCC[C@H](NC(=O)CCc1c[nH]c2ccccc12)C(=O)N(C)[C@@H](CC(=O)O)C(=O)N[C@@H](Cc1ccccc1)C(N)=O
tested_target: Type-A CCK receptor (Cavia porcellus, UniProt Q63931)
IC50, nM: 68
--
compound: COc1ccc(C=CC(=O)NCCCC[C@H](NC(=O)[C@H](Cc2c[nH]c3ccccc23)NC(=O)OC(C)(C)C)C(=O)N[C@@H](CC(=O)O)C(=O)N[C@@H](Cc2ccccc2)C(N)=O)c(OC)c1 [Example 23] (Boc-WK(X10)DF-NH2)
tested_target: Type-A CCK receptor (Cavia porcellus, UniProt Q63931)
IC50, nM: 130
--
compound: Cc1ccccc1NC(=O)NCCCC[C@H](NC(=O)C(C#N)Cc1c[nH]c2ccccc12)C(=O)N[C@@H](CC(=O)O)C(=O)N[C@@H](Cc1ccccc1)C(N)=O (stereo partly drawn)
tested_target: Type-A CCK receptor (Cavia porcellus, UniProt Q63931)
IC50, nM: 10
--
compound: Cc1ccccc1NC(=O)NCCCC[C@H](NC(=O)CCc1c[nH]c2ccccc12)C(=O)N[C@@H](CC(=O)O)C(=O)N(C)[C@@H](Cc1ccccc1)C(N)=O
tested_target: Type-A CCK receptor (Cavia porcellus, UniProt Q63931)
IC50, nM: 13
--
compound: Cc1ccccc1NC(=O)NCCCC[C@H](NC(=O)C(F)Cc1c[nH]c2ccccc12)C(=O)N[C@@H](CC(=O)O)C(=O)N(C)[C@@H](Cc1ccccc1)C(N)=O (stereo partly drawn)
tested_target: Type-A CCK receptor (Cavia porcellus, UniProt Q63931)
IC50, nM: 14
--
compound: CN(C(=O)[C@H](CCCCNC(=O)C=Cc1cccnc1)NC(=O)[C@H](Cc1c[nH]c2ccccc12)NC(=O)OC(C)(C)C)[C@@H](CC(=O)O)C(=O)N[C@@H](Cc1ccccc1)C(N)=O [Example 67] (Boc-WK(Acryloyl(3-(pyridin-3-yl)))[NMeD]F-NH2)
tested_target: Type-A CCK receptor (Cavia porcellus, UniProt Q63931)
IC50, nM: 40
--
compound: CN(C(=O)[C@H](CCCCNC(=O)c1ccc2cc(O)ccc2c1)NC(=O)[C@H](Cc1c[nH]c2ccccc12)NC(=O)OC(C)(C)C)[C@@H](CC(=O)O)C(=O)N(C)[C@@H](Cc1ccccc1)C(N)=O [Example 73] (Boc-WK(2Naphthoyl(6-OH))[NMeD][NMeF]-NH2)
tested_target: Type-A CCK receptor (Cavia porcellus, UniProt Q63931)
IC50, nM: 15

Consider the additional compound presented here.
# IC50 (compound: CC(C)(C)OC(=O)N[C@@H](Cc1c[nH]c2ccccc12)C(=O)N[C@@H](CCCCNC(=O)Nc1ccc2ccccc2c1)C(=O)N[C@@H](CC(=O)O)C(=O)N[C@@H](Cc1ccccc1)C(N)=O [Example 44] (Boc-WK([CO-βNA])DF-NH2) ) is 16

* * *

What IC50 was measured for each of the following?
Target: Type-A CCK receptor (Cavia porcellus)
Construct: Cortical and pancreatic membranes were prepared as described; from tissue; host or cells: guinea pig pancreas membranes
Assay: Radioligand binding of [125I]BH-CCK-8 in guinea pig pancreatic membrane preparations
Conditions: IC50 (nM) 125I-BH-CCK-8 Type-A receptor, guinea pig pancreatic membranes, 37° C., 150 min
Where a name gives a salt, the structure may show the parent alone. *1 amine or outer side, *2 acyl side, *3 side chain or, on linkers, in order; H or OH if unused. Where a SMILES comes first, the peptide text is derived from it. Side-chain parts run from the residue outwards. [ ]: non-standard residue; d: D form. The star is where a group is joined. NMeF = CN[C@@H](Cc1ccccc1)C(=O)O; NMeD = CN[C@@H](CC(=O)O)C(=O)O; NH(2-Me-phenyl) = Cc1ccccc1N*; CO = O=C([*:1])[*:2]; Tfa = O=C(C(F)(F)F)*; Bz = O=C(c1ccccc1)*
One number for each entry, in nM.

// known answers, use as guide
molecule: Cc1ccccc1NC(=O)NCCCC[C@H](NC(=O)[C@H](Cc1c[nH]c2ccccc12)NC(=O)OC(C)(C)C)C(=O)N[C@@H](CC(=O)O)C(=O)N1CCC[C@]1(Cc1ccccc1)C(N)=O [Example 115]
tested_target: Type-A CCK receptor (Cavia porcellus)
recorded_measurement: 18

molecule: CC(=O)N[C@@H](Cc1c[nH]c2ccccc12)C(=O)N[C@@H](CCCCNC(=O)Nc1ccccc1C)C(=O)N(C)[C@@H](CC(=O)O)C(=O)N[C@@H](Cc1ccccc1)C(N)=O [Example 86] (Ac-WK([CO-NH(2-Me-phenyl)])[NMeD]F-NH2)
tested_target: Type-A CCK receptor (Cavia porcellus)
recorded_measurement: 6.7

molecule: Cc1ccccc1NC(=O)NCCCC[C@H](NC(=O)[C@H](Cc1c[nH]c2ccccc12)NC(=O)C(F)(F)F)C(=O)N(C)[C@@H](CC(=O)O)C(=O)N[C@@H](Cc1ccccc1)C(N)=O [Example 88A] (Tfa-WK([CO-NH(2-Me-phenyl)])[NMeD]F-NH2)
tested_target: Type-A CCK receptor (Cavia porcellus)
recorded_measurement: 4.4

Entry Cc1ccccc1NC(=O)NCCCC[C@H](NC(=O)[C@H](Cc1c[nH]c2ccccc12)NC(=O)c1ccccc1)C(=O)N[C@@H](CC(=O)O)C(=O)N(C)[C@@H](Cc1ccccc1)C(N)=O [Example 89] (Bz-WK([CO-NH(2-Me-phenyl)])D[NMeF]-NH2) , tested on Type-A CCK receptor (Cavia porcellus), has a reported IC50 of 1.8
